These data points were gathered from PubChem BioAssay AID651717.

Quick list: AC40 per entry.
- Tested on: mESC Bmi1-luciferase reporter, firefly/renilla ratio, 24 h
- method: compounds raising Bmi1 reporter signal – mouse embryonic stem cells, luciferase, cherry-pick, esBAF inhibitor project, dose response (AID 651717);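 also: luciferase knocked into Bmi1 locus with EF-1a renilla as cell number control; rising ratio signals esBAF inhibition which derepresses Bmi1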
quantityKind: AC40

- COc1ccc(NC(=O)c2csc3c2CCCC3)cc1: 0.459 µM
- CC1CCCC(C)N1CCCNC(=O)c1ccc2nc(N3CCCCC3)sc2c1 (configuration not stated): 9 µM
- COc1ccc(-c2csc(Nc3cc(C)ccn3)n2)cc1C: 1.91 µM
- Cc1cccc(OCc2nc3ccccc3c(=O)n2N)c1: 7.24 µM
- COc1cccc(OCc2cc(C(=O)N(C)Cc3nc4ccccc4[nH]3)no2)c1: 2.78 µM
- CC1(C)CNC(=O)c2sc(NC(=O)c3ccccc3)nc2C1: 4.76 µM
- COc1cc2c(cc1NC(=O)C(C)OC(=O)/C=C/c1ccc(OC(F)F)cc1)oc1ccccc12 (configuration not stated): 3.91 µM
- COc1ccccc1CCC(=O)Nc1nc2ccccc2[nH]1: 3 µM
- Cc1ccc(CN2CC(C(=O)Nc3cc(C)ccn3)CC2=O)cc1 (configuration not stated): 1.48 µM
- O=C(NCCc1ccccc1)c1cccc(NC(=O)C2CCC2)c1: 8.75 µM
- N/C(=N\OC(=O)C1CCCCC1)c1ccc(Cl)cc1: 6.24 µM
- O=c1cc(-c2ccsc2)oc2ccc(-c3ccc4cc[nH]c4c3)cc12: 9.01 µM

---

- Tested on: mESC Bmi1-luciferase reporter, firefly/renilla ratio, 24 h
- method: compounds raising Bmi1 reporter signal – mouse embryonic stem cells, luciferase, cherry-pick, esBAF inhibitor project, dose response (AID 651717)
# AC40 per entry
quantityKind: AC40

* O=C(NOCc1ccccc1)OCc1ccccc1 | 4.39 µM
* C=CCn1c(NCc2ccc(OC)cc2O)nc2ccccc21 | 5.58 µM
* COc1cc(Cl)ccc1OCc1cc(C(=O)N2CCN(C)C(=O)[C@@H]2C)no1 | 1.64 µM
* Cc1cccc(-c2nc(C#N)c(N3CCCCCC3)o2)c1 | 16.7 µM
* CC(=O)n1nc(-c2ccccc2)nc1NCc1ccc(N(C)C)cc1 | 3.41 µM
* CN=Cc1cc(-c2ccccc2)sc1O | 12.9 µM
* CCS(=O)(=O)n1nc(-c2ccc(OC)cc2)nc1SC | 5.54 µM
* Nc1ccc2c(c1)C(=O)c1ccc(N)cc1-2 | 0.55 µM
* c1ccc2nc3c(ccc4ccccc43)cc2c1 | 0.939 µM
* COc1ccc2[nH]c(=O)c(-c3nnn(-c4ccccc4)n3)cc2c1 | 11.6 µM
* CC(C)Nc1nc(Cl)nc(Nc2ccccc2)n1 | 5.89 µM
* COc1ccc(NC(=O)c2cc(F)cc(F)c2)cc1Cl | 4.77 µM

---

This section presents compounds with their documented AC40 values.
- Test system: mESC Bmi1-luciferase reporter, firefly/renilla ratio, 24 h
- method: compounds raising Bmi1 reporter signal – mouse embryonic stem cells, luciferase, cherry-pick, esBAF inhibitor project, dose response (AID 651717);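 also: luciferase knocked into Bmi1 locus with EF-1a renilla as cell number control; rising ratio signals esBAF inhibition which derepresses Bmi1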
quantityKind: AC40

• COc1ccc(-c2cnc(C(O)c3ccccc3)[nH]2)cc1 (stereo not given) = 1.15 µM
• Clc1ccc(C=NN2CCCCCC2)cc1 = 0.983 µM
• CC(C)(C)Nc1nc(Cl)nc(Nc2ccccc2)n1 = 2.09 µM
• O=C(NNC(=O)c1ccccc1OCc1ccccc1)c1ccccc1F = 11.5 µM
• O=C(Nc1ccc2c(c1)C(=O)c1ccccc1-2)c1ccccc1 = 1.08 µM
• O=C(C[C@@H]1CC[C@@H]2[C@H](COC[C@H](O)CN2C(=O)Nc2ccc(Cl)cc2)O1)NCC1CCCCC1 = 2.62 µM
• N#Cc1ccc(-c2cn3c(n2)SCC3)cc1 = 4.82 µM
• Nc1ccccc1/C=C/c1ccccc1N = 2.4 µM
• COc1cccc(C(=O)Nc2ccc(Cl)c(C(F)(F)F)c2)c1 = 5.59 µM
• ON=C(CCc1ccccc1)c1ccccc1 = 0.977 µM
• CC(C)C1CCN(C(=O)C2CCC(=O)N(C3CCCCCC3)C2)CC1 (stereo not given) = 9.83 µM
• Cc1noc(C)c1C(=O)Nc1nc(-c2cc(F)ccc2F)cs1 = 6.63 µM
• O=C1CCN(Cc2ccccc2)CCN1CCSc1ccccc1 = 3.08 µM
• CSc1ccc(/C=N/NC(=O)c2ccccc2Cl)cc1 = 6.47 µM
• COC(=O)c1ccc(COC(=O)CNC(=O)c2ccc(OC)cc2)cc1 = 6.87 µM
• C(=Cc1cnnc2ccccc12)c1ccccc1 = 1.23 µM
• COc1ccc(C)c2sc(=NC(=O)c3cccc(N4C(=O)CCC4=O)c3)n(C)c12 = 1.81 µM
• Oc1ccc(-c2cccc(-c3ccc(O)cc3)c2)cc1 = 6.78 µM
• O=C(CC1CC2CCC1C2)NC1CCCCCCC1 (stereo not given) = 9.68 µM
• Clc1cccc(Cl)c1Cn1nnc(-c2cccs2)n1 = 3.31 µM
• O=C(NC1CCCC1)c1cc(-c2ccc(Cl)c(Cl)c2)on1 = 2.8 µM
• COc1ccc(-n2nc(C(=O)NCC(=O)N3CCN(c4ccccc4)CC3)c3ccccc3c2=O)c(OC)c1 = 3.37 µM
• O=C(Cc1ccccc1F)Nc1nc(-c2ccc(F)c(F)c2)cs1 = 9.65 µM
• O=C(Cc1cccs1)Nc1nc2c(s1)CCCC2 = 1.66 µM
• CC(C)Cc1cc(C(=O)Nc2ccc(Br)cc2)no1 = 2.96 µM

---

- Tested on: mESC Bmi1-luciferase reporter, firefly/renilla ratio, 24 h
- method: compounds raising Bmi1 reporter signal – mouse embryonic stem cells, luciferase, cherry-pick, esBAF inhibitor project, dose response (AID 651717);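 also: luciferase knocked into Bmi1 locus with EF-1a renilla as cell number control; rising ratio signals esBAF inhibition which derepresses Bmi1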
quantityKind: AC40

• Cc1ccc(NC(=O)C2CCCN(C(=O)c3ccc(Cl)cc3)C2)cc1C (centres undefined) = 6.09 µM
• COc1ccc2c(c1OC)C(=O)OC2Nc1nc(-c2cc3cc(Br)ccc3oc2=O)cs1 (centres undefined) = 1.25 µM
• Cc1cc(F)ccc1-c1cc(C(=O)Nc2ccc(F)cc2)[nH]n1 = 0.757 µM
• O=C(Nc1nccs1)C(=O)c1c[nH]c2ccccc12 = 0.751 µM
• COc1cccc(NC(=O)CN(C)C(=O)CNC(=O)c2sc3ccccc3c2Cl)c1 = 4.99 µM
• OC(c1ccc(F)cc1)c1ncc(-c2ccc3ccccc3c2)[nH]1 (centres undefined) = 10.9 µM
• COc1cccc(NC(=O)c2sc3nc4n(c(=O)c3c2C)CCC4)c1 = 2.73 µM
• CC(=O)c1ccc(NC(=O)c2cc(C)nc3ccccc23)cc1 = 3.55 µM
• COc1ccc(Cc2nc(-c3cccc(C)c3)no2)cc1 = 3.63 µM
• COc1ccc(Nc2ncnc3sc(C)cc23)cc1 = 5.43 µM
• COC(=O)c1c(-c2ccc(S(C)(=O)=O)cc2)sc2ccc(OC)cc12 = 0.954 µM
• CS(=O)(=O)N1CCc2cc(C(=O)Nc3ccc(Cl)cc3)ccc21 = 6.5 µM
• CN(C)c1ccc(-c2ccc3oc(-c4ccsc4)cc(=O)c3c2)cn1 = 2.73 µM
• OCc1c(OCc2cccc(F)c2)ccc2ccccc12 = 7.24 µM
• O=C(Cc1ccccn1)c1ccc(Cl)cc1 = 3.14 µM
• CCC(C)(C)C1CCc2[nH]nc(C(=O)NC3CCCCC3)c2C1 (centres undefined) = 6.44 µM
• Oc1ccc(-c2nccc(-c3ccccn3)n2)cc1 = 3.66 µM
• Cc1ccc(NC(=O)C2CCCN(c3ncccn3)C2)cc1C (centres undefined) = 4.21 µM
• Cc1cc2oc(=O)cc(CN3CCC(C)CC3)c2c(C)c1Cl = 4.55 µM
• COc1ccc(Nc2nc(C)c(C(C)=O)s2)cc1 = 4.13 µM
• O=C(/C=N/NC(=O)c1ccc(Cl)cc1Cl)c1ccccc1 = 1.41 µM
• COC(=O)c1ccc(COC(=O)c2ccc(SC)cc2OC)cc1 = 8.51 µM
• COc1cccc(CN(C)C(=O)c2ccc(COc3ccc(Cl)cc3)cc2)c1OC = 5.66 µM
• CS(=O)(=O)c1ccccc1C(=O)Nc1ccc(-c2nc3ccccc3[nH]2)cc1 = 3.96 µM

---

# AC40 listing for each entry below
- Test system: mESC Bmi1-luciferase reporter, firefly/renilla ratio, 24 h
- method: compounds raising Bmi1 reporter signal – mouse embryonic stem cells, luciferase, cherry-pick, esBAF inhibitor project, dose response (AID 651717);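 also: luciferase knocked into Bmi1 locus with EF-1a renilla as cell number control; rising ratio signals esBAF inhibition which derepresses Bmi1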
quantityKind: AC40

- O=C(Cc1ccccc1)Nc1ccc2c(c1)OC1(CCCC1)O2: 3.73 µM
- O=C(Nc1cccc(Cl)c1Cl)c1ccc(-c2ccccc2)cc1: 3.54 µM
- c1ccc(-c2cc3ccccc3[nH]2)cc1: 5.17 µM
- Cc1ccc(-c2noc(-c3ccccc3C(=O)N3CCN(C)CC3)n2)cc1: 11.5 µM
- CNc1cnc(-c2ccc(F)c(F)c2F)cn1: 1.54 µM
- CC(C)N1CC2(CC(c3ccccc3F)=NO2)CN1C(=O)c1ccc(C(C)(C)C)cc1 (configuration not stated): 4.08 µM
- COc1cccc(C(=O)c2cc3cc(Cl)ccc3[nH]2)c1: 3.55 µM
- CN(C)c1ccc(C=NN2CCCCCC2)cc1: < 0.26 µM
- O=C(CC(=O)c1ccccc1)Nc1ccccc1: 3.94 µM
- Cc1ccc(NC(=O)C2CCN(S(=O)(=O)c3ccc4ccccc4c3)CC2)nc1: 6.53 µM
- Nc1nc(SCc2ccccc2)c2ncn(C3CCCCC3)c2n1: 2.09 µM
- CCN(C(=O)c1cc2c(=O)n3cccc(C)c3nc2s1)C1CCCCC1: 25.1 µM
